# credit: patent US20240182536A1

Target: T1, IL-18 binding protein (IL-18BP) (UniProt O95998 31-194); note: unit not given here
T1 sequence (looked up): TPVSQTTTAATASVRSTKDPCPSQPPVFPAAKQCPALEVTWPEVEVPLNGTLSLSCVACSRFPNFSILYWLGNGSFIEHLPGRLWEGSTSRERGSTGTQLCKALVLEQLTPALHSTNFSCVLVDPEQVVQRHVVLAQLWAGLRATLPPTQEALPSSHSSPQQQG
Experiment: cell-based or functional assay

- binder: "IL-18 variant G3P, E6I, K53N, D54W, S55P, T63S, N91L, R104Q (ligand) YFPKLISKLSVIRNLNDQVLFIDQGNRPLFEDMTDSDMRDNAPRTIFIISMYNWPQPRGMAVSISVKSEKISTLSSENKIISFKEMNPPDLIKDTKSDIIFFQQSVPGHDNKMQFESSSYEGYFLASEKERDLFKLILKKEDELGDRSIMFTVQNED"
  Activity, +100 nM BP, DF-25000004: 0.07
- binder: "IL-18 variant G3P, E6K, D54R, S55P, T63A, N91V (ligand) YFPKLKSKLSVIRNLNDQVLFIDQGNRPLFEDMTDSDMRDNAPRTIFIISMYKRPQPRGMAVAISVKSEKISTLSSENKIISFKEMNPPDVIKDTKSDIIFFQRSVPGHDNKMQFESSSYEGYFLASEKERDLFKLILKKEDELGDRSIMFTVQNED"
  Activity, +100 nM BP, DF-25000004: 0.28
